Tested on: HELA cells (Acc57)
Experiment: Cytotoxicity assay (MTT reduction), HELA cells
Assay type: cell-based
Settings: Hela cells
Where a SMILES comes first, the peptide text is derived from it.
metric: Cytotoxicity LC50/GI50 Hela cells (µM)
Answers are plain numbers, in µM.

C[C@@H](O)[C@@H]1NC(=O)[C@@H]2CSSC[C@H](NC(=O)[C@H](Cc3ccc(O)cc3)NC(=O)[C@@H]3CCCN3C(=O)[C@@H]3CCCN3C(=O)[C@H](CC(=O)O)NC(=O)[C@H](CO)NC(=O)[C@H](CCCCN)NC1=O)C(=O)N[C@@H](Cc1ccc(O)cc1)C(=O)N1CCC[C@@H]1C(=O)N1CCC[C@H]1C(=O)N[C@@H](C1CCCCC1)C(=O)N2 [Ex. 65] (HELM PEPTIDE1{[O=C([C@@H](N[*:1])C1CCCCC1)[*:2]].C.T.K.S.D.P.P.Y.C.Y.[dP].P}$PEPTIDE1,PEPTIDE1,2:R3-10:R3|PEPTIDE1,PEPTIDE1,1:R1-13:R2$$$V2.0) ... 84
CCCC[C@@H]1NC(=O)[C@@H]2CCCN2C(=O)[C@H]2CCCCN2C(=O)[C@H](Cc2ccc(O)cc2)NC(=O)[C@@H]2CSSC[C@H](NC1=O)C(=O)N[C@@H]([C@@H](C)O)C(=O)N[C@@H](C)C(=O)N[C@@H](CO)C(=O)N[C@@H]([C@@H](C)CC)C(=O)N1CCC[C@H]1C(=O)N1CCC[C@H]1C(=O)N[C@@H](CCC(N)=O)C(=O)N2 [Ex. 120] (HELM PEPTIDE1{A.S.I.P.P.Q.C.Y.[O=C([C@H]1CCCCN1[*:1])[*:2]].P.[Nle].C.T}$PEPTIDE1,PEPTIDE1,7:R3-12:R3|PEPTIDE1,PEPTIDE1,1:R1-13:R2$$$V2.0) ... 38

Turning now to a further record.
[in] Request the reported Cytotoxicity LC50/GI50 Hela cells associated with CCCCCCCC[C@@H]1NC(=O)[C@@H]2CCCN2C(=O)[C@H]2CCCN2C(=O)[C@H](Cc2ccc(O)cc2)NC(=O)[C@@H]2CSSC[C@H](NC1=O)C(=O)N[C@@H]([C@@H](C)O)C(=O)N[C@@H](C)C(=O)N[C@@H](CO)C(=O)N[C@@H]([C@@H](C)CC)C(=O)N1CCC[C@H]1C(=O)N1CCC[C@H]1C(=O)N[C@@H](CCC(N)=O)C(=O)N2 [Ex. 102] (HELM PEPTIDE1{[CCCCCCCC[C@H](N[*:1])C(=O)[*:2]].C.T.A.S.I.P.P.Q.C.Y.[dP].P}$PEPTIDE1,PEPTIDE1,2:R3-10:R3|PEPTIDE1,PEPTIDE1,1:R1-13:R2$$$V2.0)
[out] 55

Every entry's value here was drawn from patent US8658604B2.
